Give inhibition at 1.11 µM for every item shown.
# tested-on: Human VPS34 (Homo sapiens (Human))
# Sequence (Q8NEB9 whole entry): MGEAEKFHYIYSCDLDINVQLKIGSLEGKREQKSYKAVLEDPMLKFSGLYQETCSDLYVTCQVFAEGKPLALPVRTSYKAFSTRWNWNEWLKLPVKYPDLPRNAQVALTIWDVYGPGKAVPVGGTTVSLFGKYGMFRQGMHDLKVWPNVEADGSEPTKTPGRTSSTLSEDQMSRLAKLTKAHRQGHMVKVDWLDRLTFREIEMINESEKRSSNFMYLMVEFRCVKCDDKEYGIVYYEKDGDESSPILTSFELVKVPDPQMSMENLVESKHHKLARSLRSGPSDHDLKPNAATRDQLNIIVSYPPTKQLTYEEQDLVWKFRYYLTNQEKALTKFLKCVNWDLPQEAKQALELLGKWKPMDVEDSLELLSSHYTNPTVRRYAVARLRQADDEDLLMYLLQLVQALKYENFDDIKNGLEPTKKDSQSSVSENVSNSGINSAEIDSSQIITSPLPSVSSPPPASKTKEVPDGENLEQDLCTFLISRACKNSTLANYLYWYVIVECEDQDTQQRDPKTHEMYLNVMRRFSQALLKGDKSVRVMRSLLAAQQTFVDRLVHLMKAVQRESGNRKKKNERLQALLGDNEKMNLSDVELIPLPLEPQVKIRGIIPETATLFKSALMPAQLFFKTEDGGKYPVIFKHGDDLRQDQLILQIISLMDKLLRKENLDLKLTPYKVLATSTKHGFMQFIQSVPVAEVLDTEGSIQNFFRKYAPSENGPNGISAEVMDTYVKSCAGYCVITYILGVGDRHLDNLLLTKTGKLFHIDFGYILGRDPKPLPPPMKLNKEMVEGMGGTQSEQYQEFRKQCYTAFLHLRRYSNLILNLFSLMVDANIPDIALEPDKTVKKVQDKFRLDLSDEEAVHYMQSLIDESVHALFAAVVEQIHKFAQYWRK
# measurement-description: Human VPS34 enzyme assay (Adapta TR-FRET)
# Type: biochemical
# cond: compound concentration 1.11 μM; read-out: Percent Inhibition

Provide inhibition at 1.11 µM values for the following items, in order.
1. CC(=O)Nc1cc(-c2cnc(N)c(C(=O)N3CCCC3)c2)ccn1 [Compound I-15]
2. Cc1ncc(-c2ccnc(Nc3ccc(C#N)cn3)c2)cc1NS(=O)(=O)c1ccc(F)cc1F [Compound I-228]

1. > 99%
2. > 99%

Provide inhibition at 1.11 µM values for the following items, in order.
1. CC(=O)Nc1cc(-c2cnc(N)c(C(=O)N3CCOCC3)c2)ccn1 [Compound I-152]
2. CC(=O)Nc1cc(-c2cnc(C)c(N3CCCS3(=O)=O)c2)ccn1 [Compound I-88]
3. COc1cc(F)ccc1S(=O)(=O)Nc1cc(-c2ccnc(NC(C)=O)c2)cnc1C [Compound I-58]
4. CN(C)S(=O)(=O)c1cc(-c2ccnc(Nc3ncco3)c2)cnc1N [Compound I-166]
5. Cc1cccc(Nc2cc(-c3cnc(C)c(NS(=O)(=O)c4ccc(F)cc4F)c3)ccn2)n1 [Compound I-276]

1: > 99%; 2: > 99%; 3: > 99%; 4: > 99%; 5: 96%

Provide inhibition at 1.11 µM values for the following items, in order.
1. Cc1ncc(-c2ccnc(Nc3ccnc(C4CC4)n3)c2)cc1C(=O)N1CCC1 [Compound I-246]
2. CC(=O)Nc1cc(-c2cnc(C)c(NS(=O)(=O)c3cc(Cl)sc3Cl)c2)ccn1 [Compound I-465]
3. CC(=O)Nc1cc(-c2cnc(NCC3CC3)c(NCC3CC3)c2)ccn1 [Compound I-65]
4. Cc1nccc(Nc2cc(-c3cnc(C)c(C(=O)N4CC5(COC5)C4)c3)ccn2)n1 [Compound I-415]
5. CC(=O)Nc1cc(-c2cnc(N)c(S(=O)(=O)Cc3ccccc3C(F)(F)F)c2)ccn1 [Compound I-50]
6. CC(=O)Nc1cc(-c2cnc(C)c(NS(=O)(=O)c3ccccc3Cl)c2)ccn1 [Compound I-109]

91%
97%
93%
82%
> 99%
> 99%
